Reference source for all entries: patent US10034886B2

Reported values of pEC50 for individual entries
- Test System: GLP-1R (Homo sapiens, UniProt P43220)
- Construct: host or cells: GLP-1R CRE-bla CHO-K1 cells
- Sequence (P43220 24-463): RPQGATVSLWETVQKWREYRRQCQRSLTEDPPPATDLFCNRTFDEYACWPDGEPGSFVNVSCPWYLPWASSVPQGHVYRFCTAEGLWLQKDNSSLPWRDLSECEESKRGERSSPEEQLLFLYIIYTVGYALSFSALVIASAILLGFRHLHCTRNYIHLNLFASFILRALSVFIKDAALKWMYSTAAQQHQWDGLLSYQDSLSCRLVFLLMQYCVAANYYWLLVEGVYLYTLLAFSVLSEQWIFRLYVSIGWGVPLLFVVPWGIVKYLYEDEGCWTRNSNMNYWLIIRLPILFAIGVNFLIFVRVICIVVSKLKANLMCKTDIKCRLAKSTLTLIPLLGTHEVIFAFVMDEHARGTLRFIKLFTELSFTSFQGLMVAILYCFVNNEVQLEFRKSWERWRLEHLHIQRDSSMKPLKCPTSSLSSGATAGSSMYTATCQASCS
- Sequence (P01275 100-127 partner limits assumed): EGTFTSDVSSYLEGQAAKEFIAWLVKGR
- Protocol Notes: EC20 GLP-1(9-36) PAM cAMP assay: dose response of compound in the presence of fixed concentration of GLP-1(9-36)
- Assay type: cell-based
- Setup Conditions: dose response of compound in presence of fixed concentration of GLP-1(9-36), GLP-1R CRE-bla CHO-K1 cells, read-out: EC20 GLP-1(9-36) PAM EC50
pEC50: −log10 of the molar value.

molecule=CCCCCCCOc1ccc(-c2cnc(-c3ccc(C[C@H](NC(=O)c4ccc(C(C)(C)C)s4)C(=O)N[C@H](C(=O)O)[C@H](C)CC)cc3)nc2)cc1 property=pEC50 observed_value="5.60 to 6.10"
molecule=CCCCCCCOc1ccc(-c2cnc(-c3ccc(C[C@H](NC(=O)c4ccc(C(C)(C)C)s4)C(=O)NCC4(C(=O)O)CCNCC4)cc3)nc2)cc1 property=pEC50 observed_value="5.60 to 6.10"
molecule=C[C@@H](NC(=O)[C@H](Cc1ccc(-c2ncc(-c3ccc(C(=O)c4ccccc4)cc3)cn2)cc1)NC(=O)c1ccc(C(C)(C)C)s1)C(=O)O property=pEC50 observed_value="5.30 to 5.60"
molecule=CCCCCCCOc1ccc(-c2cnc(-c3ccc(C[C@H](NC(=O)c4ccc(CC(C)C)s4)C(=O)N4CCC[C@H]4C(=O)O)cc3)nc2)cc1 property=pEC50 observed_value="5.60 to 6.10"
molecule=Cc1ccc(-c2cccc(-c3noc(-c4cnc(-c5ccc(C[C@H](NC(=O)c6ccc(C(C)(C)C)cc6)C(=O)NCCC(=O)O)cc5)nc4)n3)c2)cc1 property=pEC50 observed_value="5.30 to 5.60"
molecule="CCCCCCCOc1ccc(-c2cnc(-c3ccc(C[C@H](NC(=O)c4ccc(C(C)(C)C)s4)C(=O)NCC(C)O)cc3)nc2)cc1 (stereo partly drawn)" property=pEC50 observed_value="5.30 to 5.60"
molecule=C[C@@H](NC(=O)[C@H](Cc1ccc(-c2ncc(-c3cc4ccccc4s3)cn2)cc1)NC(=O)c1ccc(C(C)(C)C)s1)C(=O)O property=pEC50 observed_value="5.60 to 6.10"
molecule=CC(C)(C)c1ccc(C(=O)N[C@@H](Cc2ccc(-c3ncc(N4CCC(C(C)(C)C)CC4)cn3)cc2)C(=O)NCCC(=O)O)cc1 property=pEC50 observed_value="5.00 to 5.30"

We next turn to a different molecule, shown below.
Exercise: Lab note: need pEC50 for CC(C)(C)c1ccc(C(=O)N[C@@H](Cc2ccc(-c3ncc(-c4nc(CC5CCCCC5)no4)cn3)cc2)C(=O)NCCC(=O)O)cc1 on GLP-1R (Homo sapiens, UniProt P43220), anyone have it?
Key: 5.30 to 5.60
